Hello, the source for this data is patent EP4631940A1, in case you need it.

# IC50 per entry
# Test system: AGS
# measurementNotes: Cell proliferation experiment (CellTiter-Glo)
# Assay type: cell-based
# testParameters: Homo sapiens, AGS, 96 h, read-out: IC50(nM) AGS

The examples below pair each entry with its known result.
# molecule, recordedMeasurement
rows = [
    ("CCc1c(F)ccc2cc(O)cc(-c3ncc4c(N5CCC[C@@](C)(O)C5)nc(OCC5(CN6CCC7(CC6)CN(c6cc([C@H](C(=O)N8C[C@H](O)C[C@H]8C(=O)N[C@@H](C)c8ccc(-c9scnc9C)cc8)C(C)C)on6)C7)CC5)nc4c3F)c12", "12 nM"),
    ("CCc1c(F)ccc2cc(O)cc(-c3ncc4c(N5CCC[C@@](C)(O)C5)nc(OCC5(CN6CCC7(CC6)CN(c6ccc(-c8cn([C@H](C(=O)N9C[C@H](O)C[C@H]9C(=O)N[C@@H](C)c9ccc(-c%10scnc%10C)cc9)C(C)C)nn8)cn6)C7)CC5)nc4c3F)c12", "13 nM"),
    ("CCc1c(F)ccc2cc(O)cc(-c3ncc4c(N5CCCC(C)(O)C5)nc(OCC5(CN6CCC(COc7ccc(C(=O)N[C@H](C(=O)N8C[C@H](O)C[C@H]8C(=O)N[C@@H](C)c8ccc(-c9scnc9C)cc8)C(C)(C)C)cc7)CC6)CC5)nc4c3F)c12 (stereo partly shown)", "109 nM"),
    ("CCc1c(F)ccc2cc(O)cc(-c3ncc4c(N5CCC[C@@](C)(O)C5)nc(OCCN5CCC(COc6ccc(-c7cn([C@H](C(=O)N8C[C@H](O)C[C@H]8C(=O)N[C@@H](C)c8ccc(-c9scnc9C)cc8)C(C)C)nn7)cc6)CC5)nc4c3F)c12", "40 nM"),
    ("CCc1c(F)ccc2cc(O)cc(-c3ncc4c(N5CCC[C@@](C)(O)C5)nc(OCC5(CN6CCC7(CC6)CC(c6cn([C@H](C(=O)N8C[C@H](O)C[C@H]8C(=O)N[C@@H](C)c8ccc(-c9scnc9C)cc8)C(C)C)nn6)C7)CC5)nc4c3F)c12", "18 nM"),
    ("CCc1c(F)ccc2cc(O)cc(-c3ncc4c(N5CCC[C@@](C)(O)C5)nc(OCC5(CN6C[C@@H]7CN(c8cc([C@H](C(=O)N9C[C@H](O)C[C@H]9C(=O)N[C@@H](C)c9ccc(-c%10scnc%10C)cc9)C(C)C)on8)C[C@@H]7C6)CC5)nc4c3F)c12", "8.3 nM"),
    ("CCc1c(F)ccc2cc(O)cc(-c3ncc4c(N5CCC[C@@](C)(O)C5)nc(OCC5(CN6CCN(c7ccc(-c8cn([C@H](C(=O)N9C[C@H](O)C[C@H]9C(=O)N[C@@H](C)c9ccc(-c%10scnc%10C)cc9)C(C)C)nn8)cn7)CC6)CC5)nc4c3F)c12", "10 nM"),
    ("CCc1c(F)ccc2cc(O)cc(-c3ncc4c(N5CCC[C@@](C)(O)C5)nc(OCC5(CN6CCC(CN7CCN(c8cc([C@H](C(=O)N9C[C@H](O)C[C@H]9C(=O)N[C@@H](C)c9ccc(-c%10scnc%10C)cc9)C(C)C)on8)CC7)CC6)CC5)nc4c3F)c12", "39 nM"),
]

Data request: So what does the record say about IC50 for C=C1CN2[C@H](COc3cc(-c4cn([C@H](C(=O)N5C[C@H](O)C[C@H]5C(=O)N[C@@H](C)c5ccc(-c6scnc6C)cc5)C(C)C)nn4)ccn3)CC[C@@]2(COc2nc(N3CCC[C@@](C)(O)C3)c3cnc(-c4cc(O)cc5ccc(F)c(CC)c45)c(F)c3n2)C1 ?
Data returned: 40 nM

Data request: Subsequent entry: C=C1CN2[C@H](COCc3ccc(-c4cn([C@H](C(=O)N5C[C@H](O)C[C@H]5C(=O)N[C@@H](C)c5ccc(-c6scnc6C)cc5)C(C)C)nn4)cc3)CC[C@@]2(COc2nc(N3CCC[C@@](C)(O)C3)c3cnc(-c4cc(O)cc5ccc(F)c(CC)c45)c(F)c3n2)C1
Data returned: 28 nM

###

As an illustration, consider measured DC50 for compounds on KRAS G12D (Homo sapiens, UniProt P01116, G12D).
Sequence (P01116 1-188 isoform P01116-2 G12D): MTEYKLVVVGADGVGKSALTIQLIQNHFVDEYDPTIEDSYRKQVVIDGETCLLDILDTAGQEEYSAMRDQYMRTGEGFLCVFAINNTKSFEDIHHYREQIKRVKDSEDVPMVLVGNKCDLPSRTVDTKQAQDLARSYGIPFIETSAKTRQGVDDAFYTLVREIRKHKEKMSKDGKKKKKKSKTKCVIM
Include the unit after the number when you answer.

# compoundString, assaySystem, assayMetric, recordedMeasurement
measured = [
    ("CCc1c(F)ccc2cc(O)cc(-c3ncc4c(N5CCC[C@@](C)(O)C5)nc(OCC5(CN6CCC(F)(COc7cc([C@H](C(=O)N8C[C@H](O)C[C@H]8C(=O)N[C@@H](C)c8ccc(-c9scnc9C)cc8)C(C)C)on7)CC6)CC5)nc4c3F)c12", "KRAS G12D (Homo sapiens, UniProt P01116, G12D)", "DC50", "9.5 nM"),
]

Data request: Item C=C1CN2[C@H](COCc3ccc(-c4cn([C@H](C(=O)N5C[C@H](O)C[C@H]5C(=O)N[C@@H](C)c5ccc(-c6scnc6C)cc5)C(C)C)nn4)cc3)CC[C@@]2(COc2nc(N3CCC[C@@](C)(O)C3)c3cnc(-c4cc(O)cc5ccc(F)c(CC)c45)c(F)c3n2)C1 has what recorded DC50?
Data returned: 22 nM

Data request: // same read-out, input: CCc1c(F)ccc2cc(O)cc(-c3ncc4c(N5CCC[C@@](C)(O)C5)nc(OCC5(CN6CCC7(CC6)CC(Oc6cc([C@H](C(=O)N8C[C@H](O)C[C@H]8C(=O)N[C@@H](C)c8ccc(-c9scnc9C)cc8)C(C)C)on6)C7)CC5)nc4c3F)c12
Data returned: 14 nM

Data request: Also need CCc1c(F)ccc2cc(O)cc(-c3ncc4c(N5CCC[C@@](C)(O)C5)nc(OCC5(CN6CCC(Oc7cnc(-c8cn([C@H](C(=O)N9C[C@H](O)C[C@H]9C(=O)N[C@@H](C)c9ccc(-c%10scnc%10C)cc9)C(C)C)nn8)cn7)CC6)CC5)nc4c3F)c12 , thanks.
Data returned: 1.1 nM

###

# Test system: AGS
# measurementNotes: Cell proliferation experiment (CellTiter-Glo)
# Format: cell-based
# testParameters: Homo sapiens, AGS, 96 h, read-out: IC50(nM) AGS
assayMetric: IC50 (nM)
Provide the reading as a plain figure in nM.

# molecule, assayMetric, recordedMeasurement
measured = [
    ("CCc1c(F)ccc2cc(O)cc(-c3ncc4c(N5CCC[C@@](C)(O)C5)nc(OCC5(CN6CCC(N7CCN(c8cc([C@H](C(=O)N9C[C@H](O)C[C@H]9C(=O)N[C@@H](C)c9ccc(-c%10scnc%10C)cc9)C(C)C)on8)CC7)CC6)CC5)nc4c3F)c12 [Compound 115]", "IC50", 29),
]

# context switch: different molecule, same IC50
Data request: For CCc1c(F)ccc2cc(O)cc(-c3ncc4c(N5CCC[C@@](C)(O)C5)nc(OCC5(CN6CCC(N7CCC(c8cn([C@H](C(=O)N9C[C@H](O)C[C@H]9C(=O)N[C@@H](C)c9ccc(-c%10scnc%10C)cc9)C(C)C)nn8)CC7)CC6)CC5)nc4c3F)c12 [Compound 137] , what is its reported IC50?
Data returned: 37

###

Property: microsomal CLint; scope: individual molecules
# measurementNotes: in vitro
# testParameters: rat, microsomes
Please reply with the bare figure in µL/min/mg and do not write the unit itself.

Example entries and their recorded answers appear below.
# compoundString, microsomal CLint [µL/min/mg]
data = [
    ("CCc1c(F)ccc2cc(O)cc(-c3ncc4c(N5CCC[C@@](C)(O)C5)nc(OCC5(CN6CCC7(CC6)CN(c6ccc(-c8cn([C@H](C(=O)N9C[C@H](O)C[C@H]9C(=O)N[C@@H](C)c9ccc(-c%10scnc%10C)cc9)C(C)C)nn8)cn6)C7)CC5)nc4c3F)c12", 3.4),
    ("CCc1c(F)ccc2cc(O)cc(-c3ncc4c(N5CCC[C@@](C)(O)C5)nc(OCC5(CN6CCN(CC7CCN(c8cc([C@H](C(=O)N9C[C@H](O)C[C@H]9C(=O)N[C@@H](C)c9ccc(-c%10scnc%10C)cc9)C(C)C)on8)CC7)CC6)CC5)nc4c3F)c12", 15.7),
    ("CCc1c(F)ccc2cc(O)cc(-c3ncc4c(N5CCC[C@@](C)(O)C5)nc(OCC5(CN6CCC(c7ccc(-c8cn([C@H](C(=O)N9C[C@H](O)C[C@H]9C(=O)N[C@@H](C)c9ccc(-c%10scnc%10C)cc9)C(C)(C)C)nn8)cc7)CC6)CC5)nc4c3F)c12", 9.1),
]

Okay, next one:
Data request: Looking for the measured microsomal CLint of CCc1c(F)ccc2cc(O)cc(-c3ncc4c(N5CCC[C@@](C)(O)C5)nc(OCC5(CN6CCC(n7cc(-c8cn([C@H](C(=O)N9C[C@H](O)C[C@H]9C(=O)N[C@@H](C)c9ccc(-c%10scnc%10C)cc9)C(C)C)nn8)cn7)CC6)CC5)nc4c3F)c12 , can you help?
Data returned: 5.7
